Molecular target: Inadl_2, Q8NI35
Sequence (Q8NI35 238-335): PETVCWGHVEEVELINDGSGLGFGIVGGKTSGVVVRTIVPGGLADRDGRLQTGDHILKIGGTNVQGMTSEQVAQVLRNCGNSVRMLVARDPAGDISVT
Assay: holdup assay
Design: key: below the threshold = too weak to quantify, mostly under pKd 3.1 to 4
Conditions: plain residues with an end cap or a label only (N-terminal biotin on a linker: ado-ado)
assay metric: pKd

Record excerpt, results attached:
INSERT INTO assay_data (binder, result) VALUES
  ('GFGEERESIL [KIDINS220, Q9ULH0]', 'below the threshold'),
  ('FVHPILQSAV [PRKCA, P17252]', 'below the threshold'),
  ('EEPEERHTEL [CES2, O00748]', 'below the threshold'),
  ('TETASVCTKV [SLC23A1, Q9UHI7]', 'below the threshold'),
  ('EDLTKNHDEL [RCN1, Q15293]', 'below the threshold');

Attention now shifts to the item below.
Ask: May I ask what pKd has been recorded for QKNKDKEYYV [NRXN3_rs746444206, Q9Y4C0] ?
Result: 4.92

The measurements presented in this section are drawn from paper PMC9482650.
